Catalogue of binders with associated Kd
biological target: T1, CEA-derived … (SEQ ID NO: 71)-HLA-A*0201 complex (biotin on the C-terminal biotinylation tag (enzymatic, BirA)); assay: Biacore SPR, pMHC immobilised
T1 construct: also called soluble biotinylated HLA-A2-peptide complex; not shown: C-terminal biotinylation tag that replaces the transmembrane and cytoplasmic domains

// solved cases for Kd follow
binder: soluble truncated variant of the Wild-Type ILT-2 molecule (receptor, also called soluble wild-type ILT-2; soluble two domain form of the wild-type ILT-2) MGHLPKPTLWAEPGSVITQGSPVTLRCQGGQETQEYRLYREKKTAPWITRIPQELVKKGQFPIPSITWEHAGRYRCYYGSDTAGRSESSDPLELVVTGAYIKPTLSAQPSPVVNSGGNVTLQCDSQVAFDGFILCKEGEDEHPQCLNSQPHARGSSRAIFSVGPVSPSRRWWYRCYAYDSNSPYEWSLPSDLLELLVL
Kd: ~6 µM
--
binder: SEQ ID NO 46 (receptor) MAGHLPKPTLWAEPGSVITMDQPVTLRCQGGQETQEYRLYREKKTAPWITRIPQELVKKGQFPIPSITWEHAGRYRCYYGSDTSQWSASSDPLELVVTGVYIKPTLSAQPSPVVNSGGNVTLQCDSQVAFDGFILCKEGEDEHPQCLNSQPHARGSSRAIFSVGPVSPSRRWWYRCYAYDSWSPYEWSLPSDLLELDVDG
Kd: ≤ 1 µM

Consider now this further binder.
Measured Kd, SEQ ID NO 35 (receptor) MGHLPKPTLWAEPGSVITMDQPVTLRCQGGQETQEYRLYREKKTAPWITRIPQELVKKGQFPIPSITWEHAGRYRCYYGSDTAGRSESSDPLELVVTGVYIKPTLSAQPSPVVNSGGNVTLQCDSQVAFDGFILCKEGEDEHPQCLNSQPHARGSSRAIFSVGPVSPSRRWWYRCYAYMNWAPYEWSLPSDLLELDVDG : ≤ 1 µM

# credit: patent US20110172168A1
